Known inhibition of a selection of compounds
Target: 1-phosphatidylinositol 4,5-bisphosphate phosphodiesterase gamma-1 (Homo sapiens)
Experiment: PLC-gamma1 enzyme inhibitors, primary screen, biochemical, fluorescence, purified enzyme (AID 720700)
Conditions: purified PLC-gamma1, fluorogenic substrate, at 12.2 µM, active compounds read high
Out of some 370,000 compounds screened, about 3,100 (0.84%) were called active. The full list was thinned out, with actives kept by preference.

MOLECULAR STRING	inhibition / %
Cc1nc(CNc2ncnc3ccc(-c4ccc5c(c4)OCO5)cc23)cs1	-104
Cc1ccc(-n2c(SCC(=O)Nc3ccc(S(=O)(=O)Nc4nccs4)cc3)nnc2-c2cccnc2)cc1	6.23
Cc1cc(C(=O)NN=C/C=C/c2ccco2)n[nH]1	-16.7
CCCCCCCCNS(=O)(=O)/C=C/c1cc(C)ccc1CNC(=O)OC(C)(C)C	-1.88
Cc1ccccc1NC(=O)C1CCN(c2ncccn2)CC1	-3.53
